target: human FASN (Homo sapiens); construct: was purified from SKBR3 cells using procedures modified from those in Jayakumar et al; endogenous in cells; host or cells: SKBR3 human breast cancer cells (ATCC); Endogenous enzyme purified by ammonium sulfate precipitation and a mono Q column; assay: FASN NADPH Consumption Assay; type: biochemical; settings: human FASN purified from SKBR3 cells; starred symbols
measurement type: IC50

{"columns": ["compound", "IC50"],
 "data": [
  ["CC(=O)N[C@H]1CCN(C(=O)n2nnn(-c3c(Cl)cccc3Cl)c2=O)C1", "> 10000 nM"],
  ["CN(C(=O)n1nnn(-c2c(F)cccc2F)c1=O)c1cc(F)cc(F)c1", "60 to 250 nM"],
  ["CCN(C(=O)n1nnn(-c2c(Cl)cccc2Cl)c1=O)C1CCCN(C(=O)CCC(=O)O)C1 (stereo not drawn)", "1000 to 10000 nM"],
  ["CCN(C(=O)n1nnn(-c2c(Cl)cccc2Cl)c1=O)c1cccc(NS(=O)(=O)C(F)(F)F)c1", "60 to 250 nM"],
  ["CCN(C(=O)n1nnn(-c2ccccc2Cl)c1=O)c1ccccc1", "60 to 250 nM"]
]}

Quick one: give me IC50 for each item below, same order please.
1. CCN(C(=O)n1nnn(-c2c(F)cccc2CCc2ccccc2C)c1=O)c1ccccc1
2. CCN(C(=O)n1nnn(-c2c(F)cccc2F)c1=O)c1cccc(C)c1
3. CCCCC#Cc1ccc(N(CC)C(=O)n2nnn(-c3c(F)cccc3F)c2=O)c(F)c1
4. CCNC(=O)N1CCCC(N(CC)C(=O)n2nnn(-c3c(Cl)cccc3Cl)c2=O)C1 (stereo not drawn)

1. 60 to 250 nM
2. < 60 nM
3. 60 to 250 nM
4. 1000 to 10000 nM

Lab note: each compound below needs its IC50 filled in.
1. C/C=C/C/C=C/CCCN(CCC)C(=O)n1nnn(-c2ccccc2Cl)c1=O
2. CCN(C(=O)n1nnn(-c2c(Cl)cccc2Cl)c1=O)C1CCN(C(=O)OC(C)(C)C)CC1
3. CCN(C(=O)n1nnn(-c2cccc(OC)c2)c1=O)C1CCCCC1
4. C=CCN(C(=O)n1nnn(-c2c(F)cccc2F)c1=O)c1ccccc1
5. CCCN(C(=O)n1nnn(-c2ccccc2Cl)c1=O)C1CCCCC1
6. CCN(C(=O)n1nnn(-c2c(Cl)cccc2Cl)c1=O)C1CCC(C(=O)O)CC1 (stereo not drawn)
7. CN(C)N(C(=O)n1nnn(-c2ccccc2Br)c1=O)C1=CCCCC1
8. CCN(C(=O)n1nnn(-c2ccccc2OC)c1=O)c1ccc(C(=O)OCc2ccccc2)c(OC)c1

1. 250 to 1000 nM
2. 1000 to 10000 nM
3. > 10000 nM
4. < 60 nM
5. 1000 to 10000 nM
6. 1000 to 10000 nM
7. 250 to 1000 nM
8. 60 to 250 nM

Required: IC50, one value per compound below.
1. CN(C(=O)n1nnn(-c2c(F)cccc2F)c1=O)c1cccc(F)c1
2. COc1ccccc1N(C)C(=O)n1nnn(-c2c(F)cccc2F)c1=O
3. O=CNCC(=O)NCCCN(C(=O)n1nnn(-c2c(Cl)cccc2Cl)c1=O)C1CCCCC1
4. CCN(C(=O)n1nnn(-c2ccc(F)cc2)c1=O)C1CCCCC1

["60 to 250 nM", "250 to 1000 nM", "1000 to 10000 nM", "> 10000 nM"]

* * *

target: human FASN (Homo sapiens); construct: was purified from SKBR3 cells using procedures modified from those in Jayakumar et al; endogenous in cells; host or cells: SKBR3 human breast cancer cells (ATCC); Endogenous enzyme purified by ammonium sulfate precipitation and a mono Q column; test: FASN Scintillation Proximity Flashplate Assay; format: biochemical; conditions: human FASN purified from SKBR3 cells; unstarred symbols
Please respond with reported IC50 for every item in the list.

Examples from the recorded data:
{"columns": ["structure smiles string", "measurement type", "recorded value"],
 "data": [
  ["COc1ccc(N(C(=O)n2nnn(-c3c(F)cccc3F)c2=O)C2CCCCC2)cc1C(N)=O", "IC50", "< 15 nM"],
  ["CC(C)N(C(=O)n1nnn(-c2c(F)cccc2F)c1=O)c1ccc(C(=O)O)cc1F", "IC50", "< 15 nM"],
  ["CC(C)N(C(=O)n1nnn(-c2c(F)cccc2F)c1=O)c1ccc(N(S(C)(=O)=O)S(C)(=O)=O)c(C(=O)O)c1", "IC50", "< 15 nM"],
  ["CC(C)N(C(=O)n1nnn(-c2c(F)cccc2F)c1=O)c1ccc(NC(=O)OC(C)(C)C)c(C(=O)OCc2ccccc2)c1", "IC50", "< 15 nM"],
  ["CCN(C(=O)n1nnn(-c2c(F)cccc2OC)c1=O)c1ccc(C(=O)O)c(OC)c1", "IC50", "15 to 100 nM"]
]}

Provide the reported IC50 of each entry below, same order.
1. O=C(O)c1cc(N(C(=O)n2nnn(-c3c(F)cccc3F)c2=O)C2CCCCC2)cc2c1OCC2
2. CN(C)N(C(=O)n1nnn(-c2ccccc2Cl)c1=O)C1=CCCCCC1
3. CCN(C(=O)n1nnn(-c2c(F)cccc2OC)c1=O)c1cccc(Oc2cccc(C(=O)O)c2)c1
4. CN(C)N(C(=O)n1nnn(-c2ccccc2F)c1=O)C1=CCCC1

1: < 15 nM; 2: 100 to 200 nM; 3: < 15 nM; 4: 100 to 200 nM

Hello, I would appreciate it if you could give IC50 for each entry below.
1. O=C(O)c1ccc(N(C(=O)n2nnn(-c3c(F)cccc3F)c2=O)C2CCCC2)c(Oc2ccccc2)c1
2. COc1ccc(N(C(=O)n2nnn(-c3c(F)cccc3F)c2=O)C2CCCCC2)cc1C(=O)O

1. < 15 nM
2. < 15 nM

// for each compound in input: emit IC50
1. CCN(C(=O)n1nnn(-c2ccccc2OC)c1=O)c1ccc(C(=O)OCc2ccccc2)cc1
2. CN(C)N(C(=O)n1nnn(-c2c(Cl)cccc2Cl)c1=O)C1=CCCC1
3. COc1ccc(COC(=O)[C@H]2CC[C@H](N(C(=O)n3nnn(-c4c(F)cccc4OC)c3=O)c3ccccc3)CC2)cc1
4. COc1cc(Oc2ccccc2)c(N(C(=O)n2nnn(-c3c(F)cccc3F)c2=O)C2CCCC2)cc1C(=O)O

15 to 100 nM
15 to 100 nM
15 to 100 nM
< 15 nM

Each compound below has a reported value. Please supply its IC50.
1. CN(C)N(C(=O)n1nnn(-c2ccccc2Cl)c1=O)/C1=C/CCCCCC1
2. CN(C)N(C(=O)n1nnn(-c2ccccc2Cl)c1=O)C1=CCCC1
3. CCN(C(=O)n1nnn(-c2c(F)cccc2OC)c1=O)c1ccccc1Oc1ccccc1

1. 200 to 5000 nM
2. 15 to 100 nM
3. 15 to 100 nM

* * *

molecular target: human FASN (Homo sapiens, UniProt P49327); construct: was purified from SKBR3 cells using procedures modified from those in Jayakumar et al; endogenous in cells; host or cells: SKBR3 human breast cancer cells (ATCC); Endogenous enzyme purified by ammonium sulfate precipitation and a mono Q column; assay: FASN Scintillation Proximity Flashplate Assay; type: biochemical; conditions: human FASN purified from SKBR3 cells; unstarred symbols
Sequence (P49327 whole entry): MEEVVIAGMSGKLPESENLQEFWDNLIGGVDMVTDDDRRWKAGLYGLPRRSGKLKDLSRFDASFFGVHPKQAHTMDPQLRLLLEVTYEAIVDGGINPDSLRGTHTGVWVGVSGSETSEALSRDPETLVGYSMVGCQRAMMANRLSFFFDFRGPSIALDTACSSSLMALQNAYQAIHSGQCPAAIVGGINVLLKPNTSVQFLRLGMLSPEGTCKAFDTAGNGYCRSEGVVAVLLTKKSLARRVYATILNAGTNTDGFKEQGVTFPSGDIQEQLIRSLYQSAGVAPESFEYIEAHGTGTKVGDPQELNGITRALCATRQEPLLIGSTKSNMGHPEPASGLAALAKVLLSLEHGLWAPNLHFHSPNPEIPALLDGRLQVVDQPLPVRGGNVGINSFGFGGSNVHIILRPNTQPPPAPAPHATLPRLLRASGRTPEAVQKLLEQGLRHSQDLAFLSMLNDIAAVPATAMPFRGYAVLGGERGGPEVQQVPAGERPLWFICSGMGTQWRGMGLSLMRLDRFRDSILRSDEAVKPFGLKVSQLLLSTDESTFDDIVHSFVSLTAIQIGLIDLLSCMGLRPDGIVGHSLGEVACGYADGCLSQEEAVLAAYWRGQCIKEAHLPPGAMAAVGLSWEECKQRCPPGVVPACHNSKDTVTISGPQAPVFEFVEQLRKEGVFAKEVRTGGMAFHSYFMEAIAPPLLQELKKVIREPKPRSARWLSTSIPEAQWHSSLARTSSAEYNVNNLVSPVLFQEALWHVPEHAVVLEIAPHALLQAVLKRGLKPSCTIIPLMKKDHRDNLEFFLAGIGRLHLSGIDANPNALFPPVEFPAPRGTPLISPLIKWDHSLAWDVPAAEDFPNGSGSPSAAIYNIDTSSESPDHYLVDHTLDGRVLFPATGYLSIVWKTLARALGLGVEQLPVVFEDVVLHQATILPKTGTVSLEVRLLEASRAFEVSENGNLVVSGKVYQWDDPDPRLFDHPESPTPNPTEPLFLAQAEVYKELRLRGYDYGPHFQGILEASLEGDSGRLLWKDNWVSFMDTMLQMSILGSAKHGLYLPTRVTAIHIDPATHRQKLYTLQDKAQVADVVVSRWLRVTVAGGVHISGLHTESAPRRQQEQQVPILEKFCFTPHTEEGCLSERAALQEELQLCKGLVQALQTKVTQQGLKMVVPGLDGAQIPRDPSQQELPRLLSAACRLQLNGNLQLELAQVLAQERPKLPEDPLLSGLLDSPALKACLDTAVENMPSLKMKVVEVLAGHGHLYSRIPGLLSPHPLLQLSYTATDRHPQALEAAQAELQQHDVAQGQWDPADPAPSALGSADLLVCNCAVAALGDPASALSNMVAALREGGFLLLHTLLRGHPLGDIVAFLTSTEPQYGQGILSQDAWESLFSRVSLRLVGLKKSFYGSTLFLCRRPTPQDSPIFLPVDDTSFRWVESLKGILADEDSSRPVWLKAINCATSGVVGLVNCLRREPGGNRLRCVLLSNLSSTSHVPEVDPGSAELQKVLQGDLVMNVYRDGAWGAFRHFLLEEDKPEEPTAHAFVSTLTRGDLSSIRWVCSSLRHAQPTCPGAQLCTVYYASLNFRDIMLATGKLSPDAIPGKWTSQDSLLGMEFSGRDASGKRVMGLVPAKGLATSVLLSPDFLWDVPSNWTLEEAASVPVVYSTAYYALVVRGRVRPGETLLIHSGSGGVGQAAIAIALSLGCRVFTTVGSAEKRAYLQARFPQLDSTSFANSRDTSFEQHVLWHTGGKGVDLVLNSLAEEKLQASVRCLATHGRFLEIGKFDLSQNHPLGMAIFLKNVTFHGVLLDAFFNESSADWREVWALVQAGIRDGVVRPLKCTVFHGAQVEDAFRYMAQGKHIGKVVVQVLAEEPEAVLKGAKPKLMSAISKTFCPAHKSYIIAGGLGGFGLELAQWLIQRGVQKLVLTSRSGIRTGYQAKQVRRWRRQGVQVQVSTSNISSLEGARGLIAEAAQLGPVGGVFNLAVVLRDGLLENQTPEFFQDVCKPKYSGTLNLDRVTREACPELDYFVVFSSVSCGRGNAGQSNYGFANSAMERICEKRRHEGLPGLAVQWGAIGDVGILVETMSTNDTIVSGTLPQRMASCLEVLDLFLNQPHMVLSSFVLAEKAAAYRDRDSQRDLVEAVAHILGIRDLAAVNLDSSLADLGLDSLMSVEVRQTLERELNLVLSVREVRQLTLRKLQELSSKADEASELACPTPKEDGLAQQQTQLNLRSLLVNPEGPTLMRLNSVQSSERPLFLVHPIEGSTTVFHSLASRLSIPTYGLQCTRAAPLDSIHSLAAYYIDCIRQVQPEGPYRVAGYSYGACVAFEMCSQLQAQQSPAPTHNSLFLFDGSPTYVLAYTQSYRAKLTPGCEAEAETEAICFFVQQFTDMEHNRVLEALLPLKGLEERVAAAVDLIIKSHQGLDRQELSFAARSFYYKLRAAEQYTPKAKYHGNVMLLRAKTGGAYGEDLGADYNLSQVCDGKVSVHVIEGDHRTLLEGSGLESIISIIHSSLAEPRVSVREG
measurement type: IC50

Take a look at these entries with their results.
{"columns": ["molecule", "target desc", "measurement type", "recorded value"],
 "data": [
  ["O=C(O)c1ccc(F)c(N(C(=O)n2nnn(-c3c(F)cccc3F)c2=O)C2CCCC2)c1", "human FASN (Homo sapiens, UniProt P49327)", "IC50", "< 15 nM"],
  ["CC(C)(C)OC(=O)Nc1ccc(N(C(=O)n2nnn(-c3c(F)cccc3F)c2=O)C2CCCCC2)cc1C(=O)O", "human FASN (Homo sapiens, UniProt P49327)", "IC50", "< 15 nM"],
  ["CCN(C(=O)n1nnn(-c2ccccc2OC)c1=O)c1cc(C(=O)O)ccc1OCCc1ccccc1", "human FASN (Homo sapiens, UniProt P49327)", "IC50", "< 15 nM"],
  ["CCC(C)N(C(=O)n1nnn(-c2c(F)cccc2OC)c1=O)c1cccc(C(=O)OCc2ccccc2)c1 (centres unmarked)", "human FASN (Homo sapiens, UniProt P49327)", "IC50", "< 15 nM"],
  ["COc1ccc(N(C(=O)n2nnn(-c3c(F)cccc3N3CCOCC3)c2=O)C2CCCCC2)cc1C(=O)O", "human FASN (Homo sapiens, UniProt P49327)", "IC50", "15 to 100 nM"],
  ["O=C(OCc1ccccc1)c1cc(N(C(=O)n2nnn(-c3c(F)cccc3F)c2=O)C2CCCCC2)ccc1NCc1ccccc1", "human FASN (Homo sapiens, UniProt P49327)", "IC50", "< 15 nM"],
  ["CCN(C(=O)n1nnn(-c2c(F)cccc2F)c1=O)c1ccc(OC)c(C(=O)O)c1", "human FASN (Homo sapiens, UniProt P49327)", "IC50", "15 to 100 nM"],
  ["COc1ccc(N(C(=O)n2nnn(-c3c(F)cccc3C(=O)N(C)Cc3ccccc3)c2=O)C(C)C)cc1C(=O)OCc1ccccc1", "human FASN (Homo sapiens, UniProt P49327)", "IC50", "< 15 nM"],
  ["CCC(CC)N(C(=O)n1nnn(-c2c(F)cccc2F)c1=O)c1cccc(C(=O)OCc2ccccc2)c1", "human FASN (Homo sapiens, UniProt P49327)", "IC50", "< 15 nM"],
  ["O=C(O)[C@@H]1CCCN1c1ccc(N(C(=O)n2nnn(-c3c(F)cccc3F)c2=O)C2CCCCC2)cc1", "human FASN (Homo sapiens, UniProt P49327)", "IC50", "< 15 nM"]
]}

Go through the list and state IC50 for each entry.
1. CCN(C(=O)n1nnn(-c2c(Cl)cccc2Cl)c1=O)c1cccc(C(=O)O)c1
2. COc1cccc(F)c1-n1nnn(C(=O)N(c2cccc(F)c2)C(C)(C)C)c1=O
3. COc1ccc(N(C(=O)n2nnn(-c3c(F)cccc3F)c2=O)C2CCCCC2)c(OC)c1C(=O)OCc1ccccc1
4. CC(C)N(C(=O)n1nnn(-c2c(F)cccc2F)c1=O)c1ccc(N(S(C)(=O)=O)S(C)(=O)=O)c(C(=O)OCc2ccccc2)c1

15 to 100 nM
200 to 5000 nM
< 15 nM
< 15 nM

List reported IC50 for each of these molecules:
1. COc1ccc(N(C(=O)n2nnn(-c3c(F)cccc3C(=O)N3CCCCC3)c2=O)C(C)C)cc1C(=O)OCc1ccccc1
2. CC(C)N(C(=O)n1nnn(-c2c(F)cccc2F)c1=O)c1ccc(NS(C)(=O)=O)c(C(=O)O)c1
3. COc1cc(N(C(=O)n2nnn(-c3c(F)cccc3F)c2=O)C(C)C)ccc1C(=O)O

1. < 15 nM
2. < 15 nM
3. < 15 nM

Go through the list and state IC50 for each entry.
1. CCN(C(=O)n1nnn(-c2c(F)cccc2OC)c1=O)c1cc(C(=O)O)ccc1OC(C)C
2. O=C(O)c1cc(N(C(=O)n2nnn(-c3c(F)cccc3F)c2=O)C2CCCCC2)ccc1O
3. COc1ccc(N(C(=O)n2nnn(-c3cccc4nc[nH]c34)c2=O)C2CCCCC2)cc1C(=O)O

1: 15 to 100 nM; 2: < 15 nM; 3: 100 to 200 nM
